targetOrSystem: Protein phosphatase methylesterase 1 (Homo sapiens) (UniProt Q9Y570)
Sequence (Q9Y570 whole entry, looked up): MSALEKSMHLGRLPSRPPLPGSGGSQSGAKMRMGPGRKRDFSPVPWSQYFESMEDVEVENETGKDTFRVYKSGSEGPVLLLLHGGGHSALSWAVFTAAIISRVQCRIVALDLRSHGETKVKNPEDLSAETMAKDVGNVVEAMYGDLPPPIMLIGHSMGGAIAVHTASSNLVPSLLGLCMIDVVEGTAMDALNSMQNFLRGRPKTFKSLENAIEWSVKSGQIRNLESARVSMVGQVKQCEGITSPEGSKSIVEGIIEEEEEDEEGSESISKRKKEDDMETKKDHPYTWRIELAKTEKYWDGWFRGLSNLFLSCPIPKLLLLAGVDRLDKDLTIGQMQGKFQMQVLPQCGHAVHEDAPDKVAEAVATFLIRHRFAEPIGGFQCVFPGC
measurementProtocol: PME-1 inhibitors via competitive probe labeling, primary screen, biochemical, fluorescence polarization, FP-Rh probe, HTS (AID 2130);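 also: competitive labeling of PME-1 active site by serine hydrolase directed probe; 0% = PME-1 with DMSO and 100% = wells lacking PME-1 enzyme; inhibitors block probe labeling so polarization falls and inhibition rises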
conditionSet: recombinant PME-1, FP-Rh probe fluorescence polarization; at 5.9 µM; stronger effect = higher value
The campaign covered roughly 320,000 compounds. About 1,700 (0.53%) were called active. Many of the other results were omitted from the sample, so actives are more common in it than they were.
measurementName: inhibition (%)
Express your answer in %, writing the number without its unit.

Here are 2 compounds together with their reported answers.
                                   compound  unit  testvalue
0   CCN(CC)C(=O)CSC(Nc1cccc(F)c1)=C(C#N)C#N     %      -5.27
1  Nc1nc(CC(=O)CSc2ccc(Cl)cc2)nc(Nc2ccc(F)cc2)n1     %       0.37

INPUT: Give inhibition; test system Protein phosphatase methylesterase 1 (Homo sapiens) (UniProt Q9Y570); compound `Cc1ccccc1CCN(CC(=O)NC1CCCCC1)C(=O)c1csnn1`
OUTPUT: 3.53

INPUT: Give inhibition; test system Protein phosphatase methylesterase 1 (Homo sapiens) (UniProt Q9Y570); compound CCOC12CC(C)(C)CC(C)(CC3=C1C(=O)CC(C)(C)C3)C2 (stereo unspecified)
OUTPUT: 2.34

---

targetOrSystem: Protein phosphatase methylesterase 1 (Homo sapiens) (UniProt Q9Y570)
measurementProtocol: PME-1 inhibitors via competitive probe labeling, primary screen, biochemical, fluorescence polarization, FP-Rh probe, HTS (AID 2130)
conditionSet: recombinant PME-1, FP-Rh probe fluorescence polarization; at 5.9 µM; stronger effect = higher value
The whole screen tested about 320,000 compounds, of which about 1,700 (0.53%) were called active. The full list was thinned out, with actives kept by preference.
measurementName: inhibition (%)
Express your answer in %, writing the number without its unit.

>>> df
                                   compound  measurementname  unit  testvalue
0  COc1cnn(-c2ccc([N+](=O)[O-])cc2)c(=O)c1Cl       inhibition     %       -4.7
1  CC(=O)c1ccc(OCC(O)CN2CCN(S(=O)(=O)c3cccc(Br)c3)CC2)cc1 (stereo unspecified)       inhibition     %       7.43
2  COC(=O)c1ccc(CN2C(=O)NC(c3ccccc3)(c3ccccc3)C2=O)o1       inhibition     %       0.13

INPUT: Give inhibition; test system Protein phosphatase methylesterase 1 (Homo sapiens) (UniProt Q9Y570); compound `Cc1cc(C)cc(NC(=S)NCc2ccc(F)cc2)c1`
OUTPUT: 7.45

INPUT: Give inhibition; test system Protein phosphatase methylesterase 1 (Homo sapiens) (UniProt Q9Y570); compound `COc1ccccc1OCCn1c(SCC(N)=O)nc2ccccc21`
OUTPUT: -4.12

INPUT: Give inhibition; test system Protein phosphatase methylesterase 1 (Homo sapiens) (UniProt Q9Y570); compound `CCOc1cc(C(=O)Nc2c(C)ccc3nsnc23)cc(OCC)c1OCC`
OUTPUT: -3.07

---

inhibition values for the molecules below.
targetOrSystem: Protein phosphatase methylesterase 1 (Homo sapiens) (UniProt Q9Y570)
measurementProtocol: PME-1 inhibitors via competitive probe labeling, primary screen, biochemical, fluorescence polarization, FP-Rh probe, HTS (AID 2130);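 also: competitive labeling of PME-1 active site by serine hydrolase directed probe; 0% = PME-1 with DMSO and 100% = wells lacking PME-1 enzyme; inhibitors block probe labeling so polarization falls and inhibition rises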
conditionSet: recombinant PME-1, FP-Rh probe fluorescence polarization; at 5.9 µM; stronger effect = higher value
Screen size: about 320,000 compounds; about 1,700 (0.53%) were called active. This is one part of a sample in which actives are shown more often than they occur.
Express your answer in %, writing the number without its unit.

Here are 5 molecules together with their reported answers.
                                   molecule                            targetorsystem  testvalue
0            O=C(NC(=S)Nc1ncccn1)c1ccccc1Br  Protein phosphatase methylesterase 1 (Homo sapiens) (UniProt Q9Y570)      -6.82
1       CCc1noc(C)c1C(=O)Nc1nc2ccc(OC)cc2s1  Protein phosphatase methylesterase 1 (Homo sapiens) (UniProt Q9Y570)       2.67
2  CN(CCc1ccccn1)S(=O)(=O)c1ccc2c3c(cccc13)C(=O)N2  Protein phosphatase methylesterase 1 (Homo sapiens) (UniProt Q9Y570)        7.3
3     COc1ccccc1-c1sc2ccccc2c1-c1ccc(Br)nc1  Protein phosphatase methylesterase 1 (Homo sapiens) (UniProt Q9Y570)      -9.82
4    COc1ccccc1-c1c(C)nn2c(C)c(C(C)=O)cnc12  Protein phosphatase methylesterase 1 (Homo sapiens) (UniProt Q9Y570)      -0.93

INPUT: Give inhibition; test system Protein phosphatase methylesterase 1 (Homo sapiens) (UniProt Q9Y570); molecule `CC(=O)Nc1cccc(Nc2nc(-c3cccs3)nc3ccccc23)c1`
OUTPUT: -31.9

INPUT: Give inhibition; test system Protein phosphatase methylesterase 1 (Homo sapiens) (UniProt Q9Y570); molecule Cc1ccc(N(C(=O)C(F)(F)F)C(C(=O)NC2CCCCC2)c2ccncc2)cc1C (stereo unspecified)
OUTPUT: 3.24

INPUT: Give inhibition; test system Protein phosphatase methylesterase 1 (Homo sapiens) (UniProt Q9Y570); molecule COc1ccccc1N1CCN(C(=O)CCS(=O)(=O)c2ccc3c(c2)NC(=O)C(C)S3)CC1 (stereo unspecified)
OUTPUT: -1.07

INPUT: Give inhibition; test system Protein phosphatase methylesterase 1 (Homo sapiens) (UniProt Q9Y570); molecule `Cc1ccc2nc(SCC(=O)N3CCN(c4ccccc4)CC3)nc(=O)n2c1`
OUTPUT: 11.8

INPUT: Give inhibition; test system Protein phosphatase methylesterase 1 (Homo sapiens) (UniProt Q9Y570); molecule `Cc1cccc(-c2nc(Nc3ccc(O)cc3)c3ccccc3n2)c1`
OUTPUT: 30.6

INPUT: Give inhibition; test system Protein phosphatase methylesterase 1 (Homo sapiens) (UniProt Q9Y570); molecule `Cc1cc(C)c(C)c(S(=O)(=O)Nc2ccc(O)cc2)c1C`
OUTPUT: 6

---

targetOrSystem: Protein phosphatase methylesterase 1 (Homo sapiens)
measurementProtocol: PME-1 inhibitors via competitive probe labeling, primary screen, biochemical, fluorescence polarization, FP-Rh probe, HTS (AID 2130);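 also: competitive labeling of PME-1 active site by serine hydrolase directed probe; 0% = PME-1 with DMSO and 100% = wells lacking PME-1 enzyme; inhibitors block probe labeling so polarization falls and inhibition rises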
conditionSet: recombinant PME-1, FP-Rh probe fluorescence polarization; at 5.9 µM; stronger effect = higher value
The whole screen tested about 320,000 compounds, of which about 1,700 (0.53%) were called active. The entries come from a sample that favours actives as a whole.
Response key: Fulfilled means inhibition >= 30%; Not fulfilled means inhibition < 30%.

As a guide, the following entries are already answered.
>>> print(df.to_string())
                                   molecule     labelvalue
0  COc1cccc(C(=O)Nc2nnc(S(=O)(=O)N3CCCCC3)s2)c1  Not fulfilled
1  O=C(NCc1cccs1)C1CCN(S(=O)(=O)c2ccc3c(c2)OCCO3)CC1  Not fulfilled
2  O=C(NCc1cccs1)C1CCN(S(=O)(=O)c2ccc(Cl)cc2)CC1      Fulfilled
3  COC(C(=O)Nc1ccc(C(C)=O)cc1)c1ccccc1 (stereo not given)  Not fulfilled
4  COc1ccc(NC(C(=O)Nc2cccc(C(C)=O)c2)c2ccccc2)cc1 (stereo not given)      Fulfilled
5  COc1ccc(NC(=O)[C@H](NC(=O)[C@@H]2Cc3ccccc3CN2)c2ccccc2)cc1  Not fulfilled

INPUT: Is inhibition at least 30%? Consider `C=CCCC(=O)Nc1nc(C)c(-c2csc(Nc3ccc(Cl)cc3)n2)s1`
OUTPUT: Not fulfilled

INPUT: Is inhibition at least 30%? Consider `O=C(NCc1ccc(Cl)cc1)C1CCN(S(=O)(=O)c2cccs2)CC1`
OUTPUT: Not fulfilled

INPUT: Is inhibition at least 30%? Consider `Cc1nc(NC(=O)c2cccc(Cl)c2)sc1-c1csc(Nc2cccc(Cl)c2)n1`
OUTPUT: Fulfilled

INPUT: Is inhibition at least 30%? Consider COc1cccc(NC(=O)Nc2nnc(N3CCCCC3C)s2)c1 (stereo not given)
OUTPUT: Fulfilled

---

inhibition values for the compounds below.
targetOrSystem: Protein phosphatase methylesterase 1 (Homo sapiens) (UniProt Q9Y570)
measurementProtocol: PME-1 inhibitors via competitive probe labeling, primary screen, biochemical, fluorescence polarization, FP-Rh probe, HTS (AID 2130);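 also: competitive labeling of PME-1 active site by serine hydrolase directed probe; 0% = PME-1 with DMSO and 100% = wells lacking PME-1 enzyme; inhibitors block probe labeling so polarization falls and inhibition rises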
conditionSet: recombinant PME-1, FP-Rh probe fluorescence polarization; at 5.9 µM; stronger effect = higher value
Among all 320,000 compounds or so, about 1,700 (0.53%) were called active. The list comes from a sample in which actives are over-represented; it also holds close analogues and randomly drawn compounds.
Express your answer in %, writing the number without its unit.

Here are 5 compounds together with their reported answers.
In [3]: df
Out[3]:
                                smilesinput  testvalue
0  Cc1cc(C(=O)OCC(=O)Nc2ccc(F)c(F)c2)c(C)o1      -2.42
1  FC(F)(F)c1nc(-c2ccccc2)ncc1-c1nnnn1-c1ccccc1      -1.36
2  O=C(NCCc1ccccn1)c1nc(Cn2cc([N+](=O)[O-])cn2)no1      -4.02
3  Nc1nonc1-n1nnc(C(=O)N/N=C/c2c[nH]c3ccccc23)c1-c1ccccc1       34.1
4               Cc1cccc(C)c1NC(=S)N1CCCCCC1      -3.93

INPUT: Provide inhibition value for the following compound: `O=C(Oc1ccc([N+](=O)[O-])cc1)c1ccc(Cl)c(S(=O)(=O)N2CCCCC2)c1`
OUTPUT: -1.4

INPUT: Provide inhibition value for the following compound: `CCOc1[nH]n(-c2ccc(Cl)cc2)c(=O)c1C=Nc1ccc(O)cc1`
OUTPUT: 14.7

INPUT: Provide inhibition value for the following compound: `COc1ccc(C(=O)CC(=O)C(=O)Nc2cc([N+](=O)[O-])ccc2OC)cc1`
OUTPUT: -2.97

INPUT: Provide inhibition value for the following compound: `N#CCCN(C(=O)COC(=O)C1CCN(c2ccc(C(F)(F)F)cn2)CC1)c1ccc(F)cc1`
OUTPUT: 1.79

INPUT: Provide inhibition value for the following compound: `O=C(NCCS(=O)(=O)N1CCN(c2ccccc2F)CC1)c1ccc(Br)o1`
OUTPUT: 3.82

INPUT: Provide inhibition value for the following compound: `COc1ccc(CN(Cc2ccc(OC)cc2)C(=O)c2cccs2)cc1`
OUTPUT: 4.18

# credit: PubChem BioAssay AID2130
